Target: Integrin alpha-IIb/beta-3 (Homo sapiens, UniProt P05106+P08514)
Sequence (P05106 27-788 limits assumed): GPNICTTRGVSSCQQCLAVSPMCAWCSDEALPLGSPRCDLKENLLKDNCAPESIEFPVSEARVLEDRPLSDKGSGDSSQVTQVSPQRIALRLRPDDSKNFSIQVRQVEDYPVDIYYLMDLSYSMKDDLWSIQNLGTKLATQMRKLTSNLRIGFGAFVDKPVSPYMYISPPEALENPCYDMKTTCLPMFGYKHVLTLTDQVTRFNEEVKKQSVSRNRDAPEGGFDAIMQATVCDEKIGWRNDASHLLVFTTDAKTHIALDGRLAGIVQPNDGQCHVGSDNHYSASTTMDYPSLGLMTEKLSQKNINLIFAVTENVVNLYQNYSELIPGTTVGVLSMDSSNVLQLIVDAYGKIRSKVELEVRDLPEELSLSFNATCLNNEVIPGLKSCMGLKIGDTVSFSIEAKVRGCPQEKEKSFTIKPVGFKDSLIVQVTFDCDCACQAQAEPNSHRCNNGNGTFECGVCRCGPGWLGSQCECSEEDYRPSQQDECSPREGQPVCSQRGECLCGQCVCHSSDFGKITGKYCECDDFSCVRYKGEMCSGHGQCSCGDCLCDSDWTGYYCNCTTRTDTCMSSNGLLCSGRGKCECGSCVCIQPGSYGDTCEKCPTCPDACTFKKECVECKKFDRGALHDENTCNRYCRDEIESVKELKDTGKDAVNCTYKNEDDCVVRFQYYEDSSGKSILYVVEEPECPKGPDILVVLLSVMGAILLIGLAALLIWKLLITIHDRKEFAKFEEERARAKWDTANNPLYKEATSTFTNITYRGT
Sequence (P08514 32-887 limits assumed): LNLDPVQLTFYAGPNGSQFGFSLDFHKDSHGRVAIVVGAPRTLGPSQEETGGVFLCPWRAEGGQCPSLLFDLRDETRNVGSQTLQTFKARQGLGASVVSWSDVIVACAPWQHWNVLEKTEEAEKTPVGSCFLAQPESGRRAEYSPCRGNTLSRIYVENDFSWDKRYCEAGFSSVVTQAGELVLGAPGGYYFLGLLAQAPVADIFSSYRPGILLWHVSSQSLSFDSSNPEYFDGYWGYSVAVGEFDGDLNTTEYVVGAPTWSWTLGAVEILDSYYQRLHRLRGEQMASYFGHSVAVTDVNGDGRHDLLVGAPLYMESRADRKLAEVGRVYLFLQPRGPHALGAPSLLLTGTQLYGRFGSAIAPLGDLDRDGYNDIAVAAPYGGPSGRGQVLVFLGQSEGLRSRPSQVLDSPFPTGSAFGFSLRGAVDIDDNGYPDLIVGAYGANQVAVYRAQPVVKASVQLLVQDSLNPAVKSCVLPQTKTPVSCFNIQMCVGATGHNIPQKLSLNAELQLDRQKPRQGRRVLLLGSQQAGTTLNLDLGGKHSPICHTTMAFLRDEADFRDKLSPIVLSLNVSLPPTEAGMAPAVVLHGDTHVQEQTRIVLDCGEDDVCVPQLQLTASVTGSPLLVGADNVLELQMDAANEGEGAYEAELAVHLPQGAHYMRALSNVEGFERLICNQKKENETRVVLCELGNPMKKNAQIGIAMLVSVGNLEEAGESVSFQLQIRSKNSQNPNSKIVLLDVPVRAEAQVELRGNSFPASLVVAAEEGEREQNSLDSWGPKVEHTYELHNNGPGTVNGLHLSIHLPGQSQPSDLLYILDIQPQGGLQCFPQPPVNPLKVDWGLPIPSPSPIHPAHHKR
Sequence (P08514 891-1039 limits assumed): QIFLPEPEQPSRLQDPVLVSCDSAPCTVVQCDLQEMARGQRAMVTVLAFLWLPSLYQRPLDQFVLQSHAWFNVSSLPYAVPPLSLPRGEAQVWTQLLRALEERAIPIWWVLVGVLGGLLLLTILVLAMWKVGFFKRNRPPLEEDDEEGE
Experiment: Tested for inhibition of the binding of fibrinogen to purified human GPIIb-IIIa in a 96-well format (ELISA assay)
Test readout: log10 of IC50 (log10 of the value in nM)
log10 IC50, nM

> print(dat)
                                   compound                               system.name   test.readout  data.value
1  CCCCOC(=O)N[C@@H](CCC(=O)N1CCC2(CC1)CC(=O)N(c1ccc(C(=N)N)cc1)C2=O)C(=O)O  Integrin alpha-IIb/beta-3 (Homo sapiens, UniProt P05106+P08514)  log10 of IC50        1.48

Answer with the recorded log10 of IC50 of `N=C(N)c1ccc(N2C(=O)CC3(CCN(C(=O)CCCC(=O)O)CC3)C2=O)cc1` only.
2.63

Answer with the recorded log10 of IC50 of `Cc1noc(C)c1S(=O)(=O)N[C@@H](CCC(=O)N1CCC2(CC1)C(=O)N(c1ccc(C(=N)N)cc1)C(=O)N2C)C(=O)O` only.
1.20

Answer with the recorded log10 of IC50 of `CN1C(=O)N(c2ccc(C(=N)N)cc2)CC12CCN(C(=O)CCCC(=O)O)CC2` only.
3.01

Answer with the recorded log10 of IC50 of `N=C(N)c1ccc(N2C(=O)NC3(CCN(C(=O)CCCC(=O)O)CC3)C2=O)cc1` only.
1.32

----------
# maps each entry to its pIC50
Molecular target: Integrin alpha-IIb/beta-3 (Homo sapiens, UniProt P05106+P08514)
Assay: Tested for inhibition of the binding of fibrinogen to purified human GPIIb-IIIa in a 96-well format (ELISA assay)
Value format note: pIC50 is -log10 of concentration (mol/L); just state the number.

> print(dat)
                                    molecule                               system.name  data.value
 1  CN1C(=O)N(c2ccc(C(=N)N)cc2)CC12CCN(C(=O)NCCC(=O)O)CC2  Integrin alpha-IIb/beta-3 (Homo sapiens, UniProt P05106+P08514)        6.40
 2  N=C(N)c1ccc(N2CC3(CCN(C(=O)CCC(=O)O)CC3)CC2=O)cc1  Integrin alpha-IIb/beta-3 (Homo sapiens, UniProt P05106+P08514)        4.98
 3  N=C(N)c1ccc(N2CC3(CCN(C(=O)CC(=O)O)CC3)CC2=O)cc1  Integrin alpha-IIb/beta-3 (Homo sapiens, UniProt P05106+P08514)        4.60
 4  N=C(N)c1ccc(N2C(=O)CC3(CCN(C(=O)NCCC(=O)O)CC3)C2=O)cc1  Integrin alpha-IIb/beta-3 (Homo sapiens, UniProt P05106+P08514)        6.39
 5  Cc1noc(C)c1S(=O)(=O)N[C@@H](CCC(=O)N1CCC2(CC1)CCN(c1ccc(C(=N)N)cc1)C2=O)C(=O)O  Integrin alpha-IIb/beta-3 (Homo sapiens, UniProt P05106+P08514)        8.30
 6  N=C(N)c1ccc(N2CCC3(CCN(CCCCC(=O)O)CC3)C2=O)cc1  Integrin alpha-IIb/beta-3 (Homo sapiens, UniProt P05106+P08514)        5.11
 7  N=C(N)c1ccc(N2CCC3(CCN(C(=O)CCC(=O)O)CC3)C2=O)cc1  Integrin alpha-IIb/beta-3 (Homo sapiens, UniProt P05106+P08514)        5.25
 8  N=C(N)c1ccc(N2CC3(CCN(C(=O)CCCCC(=O)O)CC3)CC2=O)cc1  Integrin alpha-IIb/beta-3 (Homo sapiens, UniProt P05106+P08514)        5.14
 9  C[C@@H](CC(=O)O)CC(=O)N1CCC2(CC1)CCN(c1ccc(C(=N)N)cc1)C2=O  Integrin alpha-IIb/beta-3 (Homo sapiens, UniProt P05106+P08514)        8.40
10  CN1C(=O)N(c2ccc(C(=N)N)cc2)CC12CCN(C(=O)CC(CC(=O)O)c1ccccc1)CC2 (configuration not stated)  Integrin alpha-IIb/beta-3 (Homo sapiens, UniProt P05106+P08514)        7.70

Answer with the recorded pIC50 of `CCOC(=O)CCNC(=O)N[C@H]1CCN(c2ccc(C(=N)N)cc2)C1=O` only.
8.62

Answer with the recorded pIC50 of `N=C(N)c1ccc(N2CC3(CCN(C(=O)CCCC(=O)O)CC3)NC2=O)cc1` only.
6.12

Origin of the recorded values: ChEMBL document CHEMBL1137087
